- Measured Target: T1, recombinant human 4-1BB extracellular domain protein (human, UniProt Q07011 24-186)
- T1 construct: extracellular domain; Analyte in the Octet assay; also called CD137; TNFRSF9
- Assay Notes: Octet, binding off-rate kdis; the sheet names no species of 41BB, paragraph 86: 'binding to human and recombinant 4-1BB by octet assay'
Endpoint Label: koff

Solved entries:
INSERT INTO results (binder, value_observed) VALUES
  ('466F6 VHv2VLv5 (antibody, human IgG1, kappa, V domains shown, one of the humanized antibodies; also called 466F6 humanized) VH: RSLVESGGGLVQPGGSLRLSCTASGFTISSYHMQWVRQAPGKGLEYIGTISSGGNVYYASSARGRFTISRPSSKNTVDLQMNSLRAEDTAVYYCARDSGYSDPMWGQGTLVTVSS VL: DVVMTQSPSSVSASVGDRVTITCQASQNIRTYLSWYQQKPGKAPKLLIYAAANLASGVPSRFSGSGSGTDFTLTISDLEPGDAATYYCQSTYLGTDYVGGAFGGGTKVEIKR', '0.00254 s⁻¹'),
  ('418E4 VHv1VLv1 (antibody, human IgG1, kappa, V domains shown, one of the humanized antibodies; also called 418E4 humanized) VH: EVQLVESGGGLVQPGGSLRLSCAASGFSLSSYYMSWVRQAPGKGLEWIGSIYASGSAYYASSAKGRFTISRDNSKNTLYLQMNSLRAEDTAVYYCARDPINNDIWGQGTLVTVSS VL: DIQMTQSPSTLSASVGDRVTITCQASQSIATNLNWYQQKPGKAPKLLIYYTSSLASGVPSRFSGSGSGTEFTLTISSLQPDDFATYYCLGVWNYWGDDGTAFGGGTKVEIKR', '0.00277 s⁻¹');

Continue with the next binder.
Query block: Request the reported koff associated with 464C11 VHv1VLv1 (antibody, human IgG1, kappa, V domains shown, one of the humanized antibodies; also called 464C11 humanized) VH: EVQLVESGGGLVQPGPSLRLSCTASGFSLSHYWMTWVRQAPGKGLEYIGFINVGGDTSYASSVKGRFTISRDDSKSIAYLQMNSLKTEDTAVYYCGRGGLTFGWDLWGQGTLVTVSS VL: DIQMTQSPSTLSASVGDRVTITCQSSQSVYSNSFLSWYQQKPGKAPKLLIYSASDLASGVPSRFSGSGSGTEFTLTISSLQPDDFATYYCAGVYSDNTYVFGGGTKVEIKR
Result block: 0.000784 s⁻¹
